- TEST CONTEXT: in isopropanol, 289.15 K
READOUT LABEL: solubility (mole fraction)
Give the value as a plain number.

The recorded solubility (mole fraction) for CC(C)C(N)=O is 0.0561

* * *

- TEST CONTEXT: in isopropanol, 279.15 K
READOUT LABEL: solubility (mole fraction)
Give the value as a plain number.

The recorded solubility (mole fraction) for CC(C)C(N)=O is 0.0339

* * *

- TEST CONTEXT: in THF, 303.75 K
READOUT LABEL: solubility (mole fraction)
Give the value as a plain number.

The recorded solubility (mole fraction) for CC(C)C(N)=O is 0.093

* * *

- TEST CONTEXT: in n-propanol, 299.15 K
READOUT LABEL: solubility (mole fraction)

The recorded solubility (mole fraction) for CC(C)C(N)=O is 0.113

* * *

- TEST CONTEXT: in cyclopentanone, 299.05 K
READOUT LABEL: solubility (mole fraction)
Give the value as a plain number.

The recorded solubility (mole fraction) for CC(C)C(N)=O is 0.102

* * *

- TEST CONTEXT: in chloroform, 294.15 K
READOUT LABEL: solubility (mole fraction)
Give the value as a plain number.

The recorded solubility (mole fraction) for CC(C)C(N)=O is 0.0352

* * *

- TEST CONTEXT: in ethyl formate, 273.15 K
READOUT LABEL: solubility (mole fraction)
Give the value as a plain number.

The recorded solubility (mole fraction) for CC(C)C(N)=O is 0.0121

* * *

- TEST CONTEXT: in cyclopentanone, 284.15 K
READOUT LABEL: solubility (mole fraction)
Give the value as a plain number.

The recorded solubility (mole fraction) for CC(C)C(N)=O is 0.0642

* * *

- TEST CONTEXT: in n-butanol, 289.15 K
READOUT LABEL: solubility (mole fraction)
Give the value as a plain number.

The recorded solubility (mole fraction) for CC(C)C(N)=O is 0.0873

* * *

- TEST CONTEXT: in methanol, 309.05 K
READOUT LABEL: solubility (mole fraction)
Give the value as a plain number.

The recorded solubility (mole fraction) for CC(C)C(N)=O is 0.201

* * *

- TEST CONTEXT: in n-butanol, 323.95 K
READOUT LABEL: solubility (mole fraction)

The recorded solubility (mole fraction) for CC(C)C(N)=O is 0.21

* * *

- TEST CONTEXT: in acetonitrile, 293.85 K
READOUT LABEL: solubility (mole fraction)
Give the value as a plain number.

The recorded solubility (mole fraction) for CC(C)C(N)=O is 0.0335

* * *

- TEST CONTEXT: in ethanol, 283.95 K
READOUT LABEL: solubility (mole fraction)
Give the value as a plain number.

The recorded solubility (mole fraction) for CC(C)C(N)=O is 0.0715

* * *

- TEST CONTEXT: in methyl acetate, 318.25 K
READOUT LABEL: solubility (mole fraction)
Give the value as a plain number.

The recorded solubility (mole fraction) for CC(C)C(N)=O is 0.0722

* * *

- TEST CONTEXT: in chloroform, 273.15 K
READOUT LABEL: solubility (mole fraction)
Give the value as a plain number.

The recorded solubility (mole fraction) for CC(C)C(N)=O is 0.013

* * *

- TEST CONTEXT: in n-butanol, 273.15 K
READOUT LABEL: solubility (mole fraction)
Give the value as a plain number.

The recorded solubility (mole fraction) for CC(C)C(N)=O is 0.0542

* * *

- TEST CONTEXT: in isobutanol, 323.95 K
READOUT LABEL: solubility (mole fraction)

The recorded solubility (mole fraction) for CC(C)C(N)=O is 0.213

* * *

- TEST CONTEXT: in isopropanol, 309.05 K
READOUT LABEL: solubility (mole fraction)
Give the value as a plain number.

The recorded solubility (mole fraction) for CC(C)C(N)=O is 0.139

* * *

- TEST CONTEXT: in cyclopentanone, 323.95 K
READOUT LABEL: solubility (mole fraction)

The recorded solubility (mole fraction) for CC(C)C(N)=O is 0.201

* * *

- TEST CONTEXT: in n-butanol, 299.05 K
READOUT LABEL: solubility (mole fraction)
Give the value as a plain number.

The recorded solubility (mole fraction) for CC(C)C(N)=O is 0.115

* * *

- TEST CONTEXT: in methyl acetate, 303.75 K
READOUT LABEL: solubility (mole fraction)
Give the value as a plain number.

The recorded solubility (mole fraction) for CC(C)C(N)=O is 0.056

* * *

- TEST CONTEXT: in acetonitrile, 279.15 K
READOUT LABEL: solubility (mole fraction)
Give the value as a plain number.

The recorded solubility (mole fraction) for CC(C)C(N)=O is 0.0166

* * *

- TEST CONTEXT: in cyclohexanone, 308.55 K
READOUT LABEL: solubility (mole fraction)

The recorded solubility (mole fraction) for CC(C)C(N)=O is 0.0873

* * *

- TEST CONTEXT: in cyclopentanone, 279.15 K
READOUT LABEL: solubility (mole fraction)
Give the value as a plain number.

The recorded solubility (mole fraction) for CC(C)C(N)=O is 0.0544

* * *

- TEST CONTEXT: in THF, 289.15 K
READOUT LABEL: solubility (mole fraction)
Give the value as a plain number.

The recorded solubility (mole fraction) for CC(C)C(N)=O is 0.0661

* * *

- TEST CONTEXT: in cyclohexanone, 303.75 K
READOUT LABEL: solubility (mole fraction)
Give the value as a plain number.

The recorded solubility (mole fraction) for CC(C)C(N)=O is 0.0756

* * *

- TEST CONTEXT: in n-butanol, 313.65 K
READOUT LABEL: solubility (mole fraction)
Give the value as a plain number.

The recorded solubility (mole fraction) for CC(C)C(N)=O is 0.165

* * *

- TEST CONTEXT: in 2-butanone, 318.25 K
READOUT LABEL: solubility (mole fraction)
Give the value as a plain number.

The recorded solubility (mole fraction) for CC(C)C(N)=O is 0.0904

* * *

- TEST CONTEXT: in n-butanol, 308.55 K
READOUT LABEL: solubility (mole fraction)

The recorded solubility (mole fraction) for CC(C)C(N)=O is 0.146

* * *

- TEST CONTEXT: in cyclopentanone, 303.75 K
READOUT LABEL: solubility (mole fraction)
Give the value as a plain number.

The recorded solubility (mole fraction) for CC(C)C(N)=O is 0.117

* * *

- TEST CONTEXT: in THF, 273.15 K
READOUT LABEL: solubility (mole fraction)
Give the value as a plain number.

The recorded solubility (mole fraction) for CC(C)C(N)=O is 0.0439

* * *

- TEST CONTEXT: in ethyl formate, 313.65 K
READOUT LABEL: solubility (mole fraction)
Give the value as a plain number.

The recorded solubility (mole fraction) for CC(C)C(N)=O is 0.0508

* * *

- TEST CONTEXT: in n-butanol, 303.75 K
READOUT LABEL: solubility (mole fraction)
Give the value as a plain number.

The recorded solubility (mole fraction) for CC(C)C(N)=O is 0.13

* * *

- TEST CONTEXT: in n-butanol, 293.75 K
READOUT LABEL: solubility (mole fraction)
Give the value as a plain number.

The recorded solubility (mole fraction) for CC(C)C(N)=O is 0.0993

* * *

- TEST CONTEXT: in n-propanol, 319.15 K
READOUT LABEL: solubility (mole fraction)
Give the value as a plain number.

The recorded solubility (mole fraction) for CC(C)C(N)=O is 0.245

* * *

- TEST CONTEXT: in methanol, 319.15 K
READOUT LABEL: solubility (mole fraction)
Give the value as a plain number.

The recorded solubility (mole fraction) for CC(C)C(N)=O is 0.247

* * *

- TEST CONTEXT: in methyl acetate, 308.55 K
READOUT LABEL: solubility (mole fraction)

The recorded solubility (mole fraction) for CC(C)C(N)=O is 0.0611

* * *

- TEST CONTEXT: in methanol, 273.15 K
READOUT LABEL: solubility (mole fraction)

The recorded solubility (mole fraction) for CC(C)C(N)=O is 0.0844

* * *

- TEST CONTEXT: in methyl acetate, 289.15 K
READOUT LABEL: solubility (mole fraction)
Give the value as a plain number.

The recorded solubility (mole fraction) for CC(C)C(N)=O is 0.0422

* * *

- TEST CONTEXT: in isopropanol, 313.25 K
READOUT LABEL: solubility (mole fraction)
Give the value as a plain number.

The recorded solubility (mole fraction) for CC(C)C(N)=O is 0.166

* * *

- TEST CONTEXT: in chloroform, 279.15 K
READOUT LABEL: solubility (mole fraction)
Give the value as a plain number.

The recorded solubility (mole fraction) for CC(C)C(N)=O is 0.0176
